Molecular target: T1, CD134 expressed on the cell surface of HT1080_OX40 cells (human, UniProt P43489 29-277)
T1 construct: whole, on cells; species not restated for the HT1080 transfectant
T1 sequence (looked up): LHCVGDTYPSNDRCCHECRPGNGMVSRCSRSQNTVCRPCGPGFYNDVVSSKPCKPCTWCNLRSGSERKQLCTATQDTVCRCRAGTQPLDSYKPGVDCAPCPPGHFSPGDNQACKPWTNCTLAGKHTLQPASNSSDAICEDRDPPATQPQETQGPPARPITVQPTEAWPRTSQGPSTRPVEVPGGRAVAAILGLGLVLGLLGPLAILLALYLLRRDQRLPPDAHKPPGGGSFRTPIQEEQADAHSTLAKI
Test: HT1080_OX40 cells, imaging; further: test concentration or dose not given here
# Cellular binding assay [RFU] annotations
The response must be a number in RFU with no trailing unit.

Which Cellular binding assay [RFU] value is on record for P018.S.12.A.G05 (antibody, V domains shown, V regions on human Ig constant parts; also called AB134_87) VH: QSVEESGGRLVTPGTPLTLTCTVSGFSLSTYGMSWVRQAPGKGLEWIGIIDGGDSPYYASWAEGRFTISKTSTTVDLKITSPTTEDTATYFCARIAGSNHGPFDLWGPGTLVTVSS VL: DVVMTQTPASVSEPVGGTVTINCQASEFISNYLAWYQQKPGQPPKLLIYGASTLASGVPSRFKGSGSGTDFTLTISDLESADAATYYCQCTAYGSSYVGFGGGTEVVVK ?
570

Now consider the entry below.
What Cellular binding assay [RFU] value was documented for this binder, P018.S.04.A.C06 (antibody, V domains shown, V regions on human Ig constant parts; also called AB134_8) VH: QSVEESGGRLVTPGTPQTLTCTVSGFSLSSYAMSWVRQAPGKGLEWIGIISSSGSTYYASWAKGRFTISKTSTTVDLKITSPTTEDTATYFCARDAYPSYSPFGYYFTLWGQGTLVTVSS VL: AIKMTQTPASVSAAVGGTVSINCQASEDIYNYLAWYQQKPGQPPKLLIYDASDLASGVPSRFKGSGSGKQFTLTISGVQSDDAATYYCQHGYFTYSGENAFGGGTEVVVK ?
458

These measurements were taken from patent US20210253725A1.
